Quick note: these are IC50 numbers for system: Trk B (Homo sapiens, UniProt Q16620)
Sequence (Q16620 32-822): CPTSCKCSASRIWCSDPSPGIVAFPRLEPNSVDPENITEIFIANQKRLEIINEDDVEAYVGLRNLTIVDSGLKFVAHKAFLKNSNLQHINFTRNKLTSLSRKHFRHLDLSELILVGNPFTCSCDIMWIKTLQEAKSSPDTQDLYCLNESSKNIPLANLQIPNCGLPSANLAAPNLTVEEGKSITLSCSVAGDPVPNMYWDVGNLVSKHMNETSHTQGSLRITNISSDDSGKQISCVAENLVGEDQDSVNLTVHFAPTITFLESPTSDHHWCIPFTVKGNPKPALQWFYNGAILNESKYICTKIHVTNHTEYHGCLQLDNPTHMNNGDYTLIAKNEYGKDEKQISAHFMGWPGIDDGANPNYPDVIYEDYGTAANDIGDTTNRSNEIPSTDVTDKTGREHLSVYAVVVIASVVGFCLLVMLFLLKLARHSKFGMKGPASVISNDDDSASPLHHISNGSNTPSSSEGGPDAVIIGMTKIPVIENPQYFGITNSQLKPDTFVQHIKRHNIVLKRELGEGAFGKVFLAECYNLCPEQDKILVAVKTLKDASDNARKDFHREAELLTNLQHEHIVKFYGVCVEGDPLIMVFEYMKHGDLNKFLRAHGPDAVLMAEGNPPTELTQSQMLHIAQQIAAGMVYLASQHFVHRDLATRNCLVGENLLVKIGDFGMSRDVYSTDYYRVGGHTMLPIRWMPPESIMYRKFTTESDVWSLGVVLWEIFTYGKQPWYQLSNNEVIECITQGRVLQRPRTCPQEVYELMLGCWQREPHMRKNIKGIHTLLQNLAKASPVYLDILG
observationType: IC50 (nM)

In [3]: df
Out[3]:
                                   compound  reportedmeasurement
0  CC(C)c1cc(Nc2nc(N3CCC[C@H]3C(=O)N3CCCC3)nc3c2CCC3)n[nH]1 [138b]                    5
1  CC(=O)N1CCN(C(=O)[C@@H]2CCCN2c2nc3c(c(Nc4cc(C5CCCC5)n[nH]4)n2)CCC3)CC1 [137b]                  265
2  CN1CCN(C(=O)[C@H]2CCCN2c2nc3c(c(Nc4cc(C5CCCC5)[nH]n4)n2)CCC3)CC1 [134a]                   90
3  CC(C)c1cc(Nc2nc(N3CCC[C@@H]3C(=O)N3CC(F)(F)C(F)(F)C3)nc3c2CCC3)n[nH]1 [112a]                  628
4  O=C([C@@H]1CCCN1c1nc2c(c(Nc3cc(C4CCCC4)[nH]n3)n1)CCC2)N1CC(F)(F)C(F)(F)C1 [110b]                    2
5  CN(C)C(=O)[C@@H]1CCCN1c1nc2c(c(Nc3cc(C4CCOCC4)[nH]n3)n1)CCC2 [91b]                  902
6  CN1CCN(C(=O)[C@H]2CCCN2c2nc3c(c(Nc4cc(C5CCCC5)n[nH]4)n2)CCC3)CC1=O [136a]                  113
7  CC1(C)CCN(C(=O)[C@H]2CCCN2c2nc3c(c(Nc4cc(C5CCCC5)n[nH]4)n2)CCC3)CC1 [141a]                  231

Source of measurements: patent US20170137410A1
